Entries annotated with measured yeast fitness
B1: tRNA (parent)
chain: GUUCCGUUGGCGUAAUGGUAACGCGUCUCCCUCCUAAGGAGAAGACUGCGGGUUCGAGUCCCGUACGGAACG

Variants of: B1
method.summary: yeast fitness relative to wild type (ratio to wild type); higher = fitter; tRNA-Arg(CCU), competitive growth, 37 C, YPD
This sample holds only a part of the variants without activity.
measure.name: yeast fitness

{"residue.sequence": "GUUCCGUUGGCGUAAUGGUACCGCGUCUCCCUCCUAAGGAGAAGACUGCGGGUUCGUGUCCCGUAUGGAACG [A21C A57U C66U]", "measure.name": "yeast fitness", "obs.value": "≤ 0.5"}
{"residue.sequence": "GUUCCGUUGGCGUAAUGGUAACGCGUCUCCCACCUAAGAAGAAGACUGCGGGUACGAGUCCCGUACGGAACG [U32A G39A U54A]", "measure.name": "yeast fitness", "obs.value": "≤ 0.5"}
{"residue.sequence": "GUUCCGUUGGCGUAAUGGUAACGCGUCUCCUUCCUAAGGAGAAGAAUGCGGGUUCGUGUUCCGUACGGAACG [C31U C46A A57U C60U]", "measure.name": "yeast fitness", "obs.value": "≤ 0.5"}
{"residue.sequence": "GUUCCGUUGGCGUCAUGGUAACGCGUCUCCCUCCUAAGGAGAAGACUGCGGGUUCGCGUCCUGUACGGAACG [A14C A57C C62U]", "measure.name": "yeast fitness", "obs.value": "≤ 0.5"}
{"residue.sequence": "GUUAUGUUGGCGUAAUGGUAAUGCGUCUCCCUCAUAAGGAGAAGACUGCGGGUUCGAGUCGCGUACGGAACG [C4A C5U C22U C34A C61G]", "measure.name": "yeast fitness", "obs.value": "≤ 0.5"}
{"residue.sequence": "GUUCCGUUGGGGUAAUGGUAACGCGUCUCCCUCCUAAGGAGAAGACUGAGGGUUCGAGUCCCGUACCGAACG [C11G C49A G67C]", "measure.name": "yeast fitness", "obs.value": "≤ 0.5"}
{"residue.sequence": "GUUCCGUUGGCCUAAUGGUAACGCGUGUCCCUCCUAAGGAGAAGACUGCGGGUUCCAGUCCCGUACGGAACG [G12C C27G G56C]", "measure.name": "yeast fitness", "obs.value": "≤ 0.5"}
{"residue.sequence": "GUUCCGUGGGCGUAAUGGUUACGCGUCUCCCUCCUGAGGAGAAGACUGCGGGUUCGAGUCCCGUACGGAACG [U8G A20U A36G]", "measure.name": "yeast fitness", "obs.value": 0.635}
{"residue.sequence": "GUUCCGUUAGCGUAAUGGUAACGGGUCUCCCUCGUAAGGAGAAGACUGCGGGUUAGAGUCCCGUGCGGAACG [G9A C24G C34G C55A A65G]", "measure.name": "yeast fitness", "obs.value": "≤ 0.5"}
{"residue.sequence": "GAUCCGUUAGCGUAAUGGUAACGCGUCUCCCUCCUACGGAGCAGACUGCGGGUUCGAGUCCCGUACGAAACG [U2A G9A A37C A42C G68A]", "measure.name": "yeast fitness", "obs.value": "≤ 0.5"}
{"residue.sequence": "GGUUCGUUGGCGUAAUGGUAACGCGUCUCCCUCCUAAGGAGAAGACUGCGGGUUCGAGUCACGUUCGGCACG [U2G C4U C61A A65U A69C]", "measure.name": "yeast fitness", "obs.value": "≤ 0.5"}
{"residue.sequence": "GUUCCGUUGGCGUAAUGGUAACACGUCUCACUCCUAAGGAGAAGACUGCGGGUUCGAGUCCCGAACGGAACG [G23A C30A U64A]", "measure.name": "yeast fitness", "obs.value": "≤ 0.5"}
{"residue.sequence": "GUUCCGUUGGCGUUAUCGUAACGAGUCUCGCUCCUAAGGAGAAGACUGCGGGUUCGAGUCCAGUACGGAUCG [A14U G17C C24A C30G C62A A70U]", "measure.name": "yeast fitness", "obs.value": "≤ 0.5"}
{"residue.sequence": "GUUCUGUUGGCGUAGUGGUUACGCGUCUCCCUCCUAAGGAGGAGACUGCGGGUUCGAGUCCCCUACGGAACG [C5U A15G A20U A42G G63C]", "measure.name": "yeast fitness", "obs.value": 0.65}
{"residue.sequence": "GUUCCGUUGGCGUGAUGGUAACGCGUCUCCCUCCUAAGGAGAAGACUGGGGGUUCCAGUCCCGUACGGAACG [A14G C49G G56C]", "measure.name": "yeast fitness", "obs.value": "≤ 0.5"}
{"residue.sequence": "GCUCCGUUGGAGUAAUGGUAACGCGUCUCCUUUCUAAGGAGCAGACUGCGGGUUCGAGUCUCGUACGGAACG [U2C C11A C31U C33U A42C C61U]", "measure.name": "yeast fitness", "obs.value": "≤ 0.5"}
{"residue.sequence": "GUUCCGAUGGCGUAAUGGUAACGCGUUUCCCUCCUAAGGAGAAGACUGCGGGUUCGUGUCCCGUCCGGAACG [U7A C27U A57U A65C]", "measure.name": "yeast fitness", "obs.value": "≤ 0.5"}
{"residue.sequence": "GUUCAGUUGGCGUAAUGCUAACGCGUCUCCCUCCUAAGGAGAAGAUUGCGGGUUCGAGUCCCGUACGGAACG [C5A G18C C46U]", "measure.name": "yeast fitness", "obs.value": 0.557}
{"residue.sequence": "GUUCCGUUGGCGUAAUGCUAACGCGUCUCCCUCGUAAGGAGAAGCCUGCGGGUUCGAGUCCCGUAUGGAACG [G18C C34G A45C C66U]", "measure.name": "yeast fitness", "obs.value": 0.775}
{"residue.sequence": "GUUCAGUUGGCGUAAUAGUACCGCGUCUCCCUGCUAAGGAGAUGACUGCGGGUUCGAGUCCCGUACGGAACG [C5A G17A A21C C33G A43U]", "measure.name": "yeast fitness", "obs.value": "≤ 0.5"}
{"residue.sequence": "GUUCCGUUGGCGUAAUGCUAACGCGUCUCCCUCCUAAGGAGUAGACUCCGGGUUCGAGUCCCGCACGGAACG [G18C A42U G48C U64C]", "measure.name": "yeast fitness", "obs.value": "≤ 0.5"}
{"residue.sequence": "GUUCCGUUGGCGUAAUGGUAACGCGUCGGCCUCCUAAGGAGAAGACUGCGGGUUCGAGUCCAGUACGGAACG [U28G C29G C62A]", "measure.name": "yeast fitness", "obs.value": 0.711}
{"residue.sequence": "GUUCCGUUGGCGUAAUGGUAACGCGUCUCCUUCAUAAGGAGAAGACUGCGGGUUCGAGUCCCGUACGGAACG [C31U C34A]", "measure.name": "yeast fitness", "obs.value": 0.863}
{"residue.sequence": "GUUCCGGUGGCGUAAUGGUAACGCGUGUCCCUCCUAAGCAGAAGACCGGGGGUUCGGGUCCCGUACGGAACG [U7G C27G G39C U47C C49G A57G]", "measure.name": "yeast fitness", "obs.value": "≤ 0.5"}
{"residue.sequence": "GUUCCGUUGGCGUAAUGGUAUCGCGUCUCCGUCCUAAGGUGAAGACUGCCGGUUCGAGUCACGUAUGGAACG [A21U C31G A40U G50C C61A C66U]", "measure.name": "yeast fitness", "obs.value": 0.513}
{"residue.sequence": "GUUCCGUUGGCGUAAUGGCAACGCGUCUCCCUCCUAACGAGAACAAUGCGGGUUCGAGUCCCGUACGGAACG [U19C G38C G44C C46A]", "measure.name": "yeast fitness", "obs.value": 0.872}
{"residue.sequence": "GUUCCGUUGGCGUAAUGGUAACGCGUCUCCCUCCUAAGGUGAAGACUGCGGGUUCGUGUCCCGUACGGAACG [A40U A57U]", "measure.name": "yeast fitness", "obs.value": 0.837}
{"residue.sequence": "GUUCCGUUGGUGUAGUGGUAACGGGUGUCCUUCCUAAGGACAAGACUGUGGGUUCGAGUCCCGUACGGAACG [C11U A15G C24G C27G C31U G41C C49U]", "measure.name": "yeast fitness", "obs.value": "≤ 0.5"}
{"residue.sequence": "GUUCCGUUGGCGUAAAGGUAACGCGUCUCCCUCCUAUGGAGAAGACUGCGGGUUGCAGUCCCGUACGGAACG [U16A A37U C55G G56C]", "measure.name": "yeast fitness", "obs.value": "≤ 0.5"}
{"residue.sequence": "GUUCCGUUGGCGUAAUGGUAACGCGUCUCCCUCUUAAGGAGAAGACUGCGGGUUCGAGUCCCGUACGGCACG [C34U A69C]", "measure.name": "yeast fitness", "obs.value": 0.774}
{"residue.sequence": "GUUCCGUUGGCGUAAUGGUAACGCGUCUCCCUCCUAAGGAGAAGACUACGGGUUCGAGUCCCGUACGAAACG [G48A G68A]", "measure.name": "yeast fitness", "obs.value": 0.998}
{"residue.sequence": "GUUCCGUUGGCGUAAUGGUAACGCGUCUCCCUCCUAAGGAAAAGACUGCGGGUUCGAAUCCCGUACGGAACG [G41A G58A]", "measure.name": "yeast fitness", "obs.value": 1}
{"residue.sequence": "GUUCCGUUGGCGUAAUGGUAACGCGUCUGCCCCCUAAGGAGAAGACUGCGAGUUCGAGUCCCGUACGGAACG [C29G U32C G51A]", "measure.name": "yeast fitness", "obs.value": 0.723}
